target: Bcat-Halo (UniProt P35222); experiment: NanoBRET Abs IC50, HEK293 cells, B-cat-Halo / TCF4-Luc engagement
Sequence (P35222 whole entry): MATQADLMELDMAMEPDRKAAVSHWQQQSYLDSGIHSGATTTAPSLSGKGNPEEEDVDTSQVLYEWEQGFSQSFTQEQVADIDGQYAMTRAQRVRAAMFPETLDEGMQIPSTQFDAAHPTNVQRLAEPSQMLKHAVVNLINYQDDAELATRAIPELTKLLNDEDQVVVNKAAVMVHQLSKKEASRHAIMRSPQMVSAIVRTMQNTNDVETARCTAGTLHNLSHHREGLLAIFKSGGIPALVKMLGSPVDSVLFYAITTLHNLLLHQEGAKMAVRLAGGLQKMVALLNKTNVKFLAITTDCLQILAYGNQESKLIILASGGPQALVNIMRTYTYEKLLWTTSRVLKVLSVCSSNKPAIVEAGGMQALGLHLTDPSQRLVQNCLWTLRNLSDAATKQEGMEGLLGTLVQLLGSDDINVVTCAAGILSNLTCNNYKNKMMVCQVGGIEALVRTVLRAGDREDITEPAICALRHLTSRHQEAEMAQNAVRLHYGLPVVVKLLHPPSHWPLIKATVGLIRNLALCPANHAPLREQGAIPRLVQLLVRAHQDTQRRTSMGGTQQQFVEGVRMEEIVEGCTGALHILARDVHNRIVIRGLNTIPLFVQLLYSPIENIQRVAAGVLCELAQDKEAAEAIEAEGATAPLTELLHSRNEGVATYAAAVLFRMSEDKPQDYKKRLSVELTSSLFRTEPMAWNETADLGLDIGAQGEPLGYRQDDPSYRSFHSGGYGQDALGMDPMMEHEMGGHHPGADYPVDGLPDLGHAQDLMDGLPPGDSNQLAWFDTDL
Starred links: 1 amine or outer side, 2 acyl side, 3 side chain; linkers in the order of their positions; H or OH if unused. Positions of bridges follow the written chain, without caps; N, C: chain ends. Non-standard residues stand in square brackets, D forms with d. Primed or numbered codes have the meaning given here. (CH2CMe2CO2H)TriAzDap = (S)-3-(1-(2-amino-2-carboxyethyl)-1H-1,2,3-triazol-4-yl)-2,2-dimethylpropanoic acid, CC(C)(Cc1cn(C[C@H](N[*:1])C(=O)[*:2])nn1)C(=O)[*:3]; (CMe2CO2H)TriAzDap = (S)-2-amino-3-(4-(2-carboxypropan-2-yl)-1H-1,2,3-triazol-1-yl)propanoic acid, CC(C)(C(=O)[*:3])c1cn(C[C@H](N[*:1])C(=O)[*:2])nn1; PyrS2″ = (S)-3-amino-1-((pent-4-en-1-yloxy)carbonyl)pyrrolidine-3-carboxylic acid (stapling residue), C=CCCCOC(=O)N1CC[C@@](N[*:1])(C(=O)[*:2])C1; (CH2CH2CO2H)TriAzDap = (S)-2-amino-3-(4-(2-carboxyethyl)-1H-1,2,3-triazol-1-yl)propanoic acid, O=C([C@H](Cn1cc(CCC(=O)[*:3])nn1)N[*:1])[*:2]; B5(4) = 2,2-bis(4-pentenyl)glycine = 2-amino-2-(pent-4-en-1-yl)hept-6-enoic acid (stitching residue), C=CCCCC(CCCC=C)(N[*:1])C(=O)[*:2]; B5(5) = 2,2-bis(4-pentenyl)glycine, 2-amino-2-(pent-4-en-1-yl)hept-6-enoic acid (stitching residue), C=CCCCC(CCCC=C)(N[*:1])C(=O)[*:2]; (3C)TriAzLys = (S)-2-amino-6-(4-propyl-1H-1,2,3-triazol-1-yl)hexanoic acid, CCCc1cn(CCCC[C@H](N[*:1])C(=O)[*:2])nn1; Phe(3-COOH) = N[C@@H](Cc1cccc(C(=O)O)c1)C(=O)O; Phe(2-CF3) = N[C@@H](Cc1ccccc1C(F)(F)F)C(=O)O; Bta = N[C@@H](Cc1csc2ccccc12)C(=O)O; αAllylPro = C=CC[C@@]1(C(=O)O)CCCN1; tBuAla = CC(C)(C)C[C@H](N)C(=O)O; 3Thi = N[C@@H](Cc1ccsc1)C(=O)O
# IC50 values compiled below
ENDPOINT_NAME: IC50 (µM)

[[record]]
binder = "Ac-[αAllylPro]D[tBuAla][B5(4)]D[(CMe2CO2H)TriAzDap]QAFL[PyrS2″][Phe(2-CF3)][Bta]A-NH2 (staple 1-4, 4-11) [I-2369]"
unit_of_measure = "µM"
reported_measurement = 9.5

[[record]]
binder = "Ac-[αAllylPro]D[tBuAla][B5(5)]D[Phe(3-COOH)]AAFL[PyrS2″][Phe(2-CF3)][Bta]QLV-NH2 (staple 1-4, 4-11) [I-2379]"
unit_of_measure = "µM"
reported_measurement = 5

[[record]]
binder = "Ac-[αAllylPro]D[tBuAla][B5(4)]DDAAFL[PyrS2″][3Thi][Bta][(3C)TriAzLys]-NH2 (staple 1-4, 4-11) [I-2375]"
unit_of_measure = "µM"
reported_measurement = 13.5

[[record]]
binder = "Ac-[αAllylPro]D[tBuAla][B5(4)]D[(CH2CMe2CO2H)TriAzDap]QAFL[PyrS2″][Phe(2-CF3)][Bta]A-NH2 (staple 1-4, 4-11) [I-2368]"
unit_of_measure = "µM"
reported_measurement = 5

[[record]]
binder = "Ac-[αAllylPro]D[tBuAla][B5(4)]D[(CH2CH2CO2H)TriAzDap]QAFL[PyrS2″][Phe(2-CF3)][Bta]A-NH2 (staple 1-4, 4-11) [I-2367]"
unit_of_measure = "µM"
reported_measurement = 6.2

